- Tested on: RXRa homodimer (NR concentration 180 nM)
- method-description: PBM binding z-score (relative to random genomic background probes); higher = stronger binding; sequences stand for … in GC…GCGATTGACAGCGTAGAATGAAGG
// label = satisfied if PBM binding z-score is not less than 3, otherwise not satisfied

Illustrative cases are given below, each with its answer.
| biosequence | assigned-class |
| --- | --- |
| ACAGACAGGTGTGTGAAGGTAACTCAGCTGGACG | not satisfied |
| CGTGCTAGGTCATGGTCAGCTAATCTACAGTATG | not satisfied |
| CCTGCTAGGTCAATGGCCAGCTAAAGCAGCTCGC | not satisfied |

Query: Dear colleague, could you confirm whether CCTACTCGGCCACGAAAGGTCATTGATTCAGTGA has PBM binding z-score at or above 3?
Result: satisfied

Query: Dear colleague, could you confirm whether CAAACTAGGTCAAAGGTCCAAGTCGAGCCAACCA has PBM binding z-score at or above 3?
Result: satisfied

Query: Dear colleague, could you confirm whether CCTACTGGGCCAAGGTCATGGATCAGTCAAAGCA has PBM binding z-score at or above 3?
Result: satisfied

Query: Dear colleague, could you confirm whether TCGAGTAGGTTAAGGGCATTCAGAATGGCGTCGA has PBM binding z-score at or above 3?
Result: not satisfied

---

- System: RXRa DBDmut IVT, anti-RXR (DBD mutation: RXRa K156A/R161A, NR concentration 90 nM)
- method-description: PBM binding z-score (relative to random genomic background probes); higher = stronger binding; sequences stand for … in GC…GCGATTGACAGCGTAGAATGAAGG
Would you kindly list PBM binding z-score for each of these sequences?
Numbers only.

Record excerpt, results attached:
| biosequence | readout-label | recorded-value |
| --- | --- | --- |
| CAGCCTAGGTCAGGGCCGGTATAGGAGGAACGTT | PBM binding z-score | -0.785 |
| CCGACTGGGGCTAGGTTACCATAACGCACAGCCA | PBM binding z-score | -0.639 |
| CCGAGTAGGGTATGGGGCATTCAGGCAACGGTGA | PBM binding z-score | -0.938 |
| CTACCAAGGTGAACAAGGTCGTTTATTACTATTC | PBM binding z-score | 2.29 |
| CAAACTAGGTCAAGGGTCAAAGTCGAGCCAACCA | PBM binding z-score | 2.47 |

Query: Complete the entry with PBM binding z-score for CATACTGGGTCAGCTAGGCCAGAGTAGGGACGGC
Result: -0.42

---

- System: VDR:RXRa (NR concentration 270 nM, RXRa partner concentration 90 nM)
- method-description: PBM binding z-score (relative to random genomic background probes); higher = stronger binding; sequences stand for … in GC…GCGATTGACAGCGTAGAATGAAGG
// label = MET if PBM binding z-score is not less than 0.7, otherwise NOT MET

Illustrative cases are given below, each with its answer.
| biosequence | assigned-class |
| --- | --- |
| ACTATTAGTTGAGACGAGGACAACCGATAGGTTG | NOT MET |
| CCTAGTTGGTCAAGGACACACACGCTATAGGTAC | MET |

Query: Dear colleague, could you confirm whether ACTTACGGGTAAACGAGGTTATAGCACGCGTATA has PBM binding z-score at or above 0.7?
Result: MET

Query: Dear colleague, could you confirm whether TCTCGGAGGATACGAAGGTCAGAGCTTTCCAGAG has PBM binding z-score at or above 0.7?
Result: MET

Query: Dear colleague, could you confirm whether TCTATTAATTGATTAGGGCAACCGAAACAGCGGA has PBM binding z-score at or above 0.7?
Result: NOT MET

Query: Dear colleague, could you confirm whether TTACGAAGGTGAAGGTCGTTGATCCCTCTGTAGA has PBM binding z-score at or above 0.7?
Result: MET

---

- Test system: RARg homodimer (NR concentration 270 nM)
- method-description: PBM binding z-score (relative to random genomic background probes); higher = stronger binding; sequences stand for … in GC…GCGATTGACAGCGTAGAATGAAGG
readout-label: PBM binding z-score
Numbers only.

Record excerpt, results attached:
| biosequence | target-or-system | PBM binding z-score |
| --- | --- | --- |
| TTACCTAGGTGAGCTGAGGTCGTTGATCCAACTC | RARg homodimer (NR concentration 270 nM) | 0.325 |
| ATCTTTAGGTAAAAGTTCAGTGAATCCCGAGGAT | RARg homodimer (NR concentration 270 nM) | 1.85 |
| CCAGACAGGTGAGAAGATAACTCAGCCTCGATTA | RARg homodimer (NR concentration 270 nM) | 0.586 |
| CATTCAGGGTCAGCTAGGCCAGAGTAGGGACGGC | RARg homodimer (NR concentration 270 nM) | 5.03 |
| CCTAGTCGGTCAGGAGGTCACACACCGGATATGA | RARg homodimer (NR concentration 270 nM) | 5.46 |

Turning now to a further record.
Query: Complete the entry with PBM binding z-score for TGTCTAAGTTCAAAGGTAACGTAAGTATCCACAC
Result: 3.63

---

- System: RARa:RXR (NR concentration 270 nM, RXRa partner concentration 90 nM)
- method-description: PBM binding z-score (relative to random genomic background probes); higher = stronger binding; sequences stand for … in GC…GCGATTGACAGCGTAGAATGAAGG
readout-label: PBM binding z-score
Numbers only.

| biosequence | PBM binding z-score |
| --- | --- |
| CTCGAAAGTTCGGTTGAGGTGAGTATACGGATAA | 1.8 |
| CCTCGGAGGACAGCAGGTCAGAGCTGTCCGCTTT | 0.742 |
| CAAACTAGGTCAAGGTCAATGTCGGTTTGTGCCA | 4.96 |

For every item in the list below, what is its measured PBM binding z-score?
1. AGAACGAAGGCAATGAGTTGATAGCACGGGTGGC
2. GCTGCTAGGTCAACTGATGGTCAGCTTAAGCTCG
3. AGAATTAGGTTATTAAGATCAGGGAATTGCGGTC
4. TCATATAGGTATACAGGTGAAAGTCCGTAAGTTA
5. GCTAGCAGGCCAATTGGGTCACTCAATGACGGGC

Result:
[-0.69, 3.1, 0.229, 1.03, 0.585]

For every item in the list below, what is its measured PBM binding z-score?
1. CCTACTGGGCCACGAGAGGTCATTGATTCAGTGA
2. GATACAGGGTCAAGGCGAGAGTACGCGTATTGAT
3. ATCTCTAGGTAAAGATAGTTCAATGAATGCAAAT
4. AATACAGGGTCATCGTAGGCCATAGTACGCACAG
5. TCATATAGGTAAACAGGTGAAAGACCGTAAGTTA
6. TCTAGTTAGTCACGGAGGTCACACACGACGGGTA
7. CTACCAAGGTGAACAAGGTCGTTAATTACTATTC
8. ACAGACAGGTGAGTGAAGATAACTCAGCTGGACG

Result:
1. 5.15
2. 4.83
3. 0.946
4. 5.17
5. 1.22
6. 4.71
7. 2.57
8. -0.226

For every item in the list below, what is its measured PBM binding z-score?
1. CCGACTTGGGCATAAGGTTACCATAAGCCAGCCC
2. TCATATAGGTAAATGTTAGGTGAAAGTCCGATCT
3. TCGAGTAGTTTAGGGGCATTCAGAATGGCGTCGA
4. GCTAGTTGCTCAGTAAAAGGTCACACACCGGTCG
5. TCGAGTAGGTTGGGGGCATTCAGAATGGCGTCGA
6. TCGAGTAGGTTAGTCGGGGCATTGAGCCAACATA

Result:
[0.822, 1.63, 0.532, 5.72, 1.98, 0.186]

For every item in the list below, what is its measured PBM binding z-score?
1. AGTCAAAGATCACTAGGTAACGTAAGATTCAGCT
2. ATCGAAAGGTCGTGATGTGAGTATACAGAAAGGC
3. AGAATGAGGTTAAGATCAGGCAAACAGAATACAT
4. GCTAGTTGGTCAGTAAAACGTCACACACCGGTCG
5. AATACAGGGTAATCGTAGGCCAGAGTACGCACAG
6. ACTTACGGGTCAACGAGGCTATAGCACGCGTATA
7. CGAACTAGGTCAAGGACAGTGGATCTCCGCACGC

Result:
0.125
3.38
2.09
-0.372
0.578
4.16
1.62

For every item in the list below, what is its measured PBM binding z-score?
1. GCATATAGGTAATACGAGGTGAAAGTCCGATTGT
2. CAAACTAGGGCAAGGTCAAAGTCGGTTTGTGCCA
3. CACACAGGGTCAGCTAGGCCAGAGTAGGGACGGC
4. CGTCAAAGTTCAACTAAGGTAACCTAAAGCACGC
5. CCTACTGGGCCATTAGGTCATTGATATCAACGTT
6. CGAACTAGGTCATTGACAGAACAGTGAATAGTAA
7. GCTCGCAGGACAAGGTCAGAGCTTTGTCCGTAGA

Result:
1: 1.27; 2: 4.96; 3: 3.32; 4: 5.01; 5: 1.72; 6: 1.99; 7: 1.6

For every item in the list below, what is its measured PBM binding z-score?
1. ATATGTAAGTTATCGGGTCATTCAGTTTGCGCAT
2. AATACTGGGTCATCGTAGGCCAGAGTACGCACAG
3. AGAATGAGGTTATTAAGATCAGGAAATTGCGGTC
4. TCTAGCAGGCCAGACGGTCACTCAAGAGGTACGG
5. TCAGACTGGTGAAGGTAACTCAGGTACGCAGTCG
6. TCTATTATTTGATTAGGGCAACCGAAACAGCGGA
7. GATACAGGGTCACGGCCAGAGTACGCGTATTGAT

Result:
[2.93, 2.35, 1.3, -0.457, 0.305, 1.17, 6.41]

For every item in the list below, what is its measured PBM binding z-score?
1. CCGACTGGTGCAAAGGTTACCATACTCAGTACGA
2. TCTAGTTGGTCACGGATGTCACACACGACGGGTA
3. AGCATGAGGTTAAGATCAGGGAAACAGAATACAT
4. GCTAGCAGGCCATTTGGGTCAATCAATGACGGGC

Result:
[2.87, 0.724, 2.07, 0.95]

For every item in the list below, what is its measured PBM binding z-score?
1. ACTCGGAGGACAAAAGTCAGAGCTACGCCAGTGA
2. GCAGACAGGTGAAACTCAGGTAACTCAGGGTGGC
3. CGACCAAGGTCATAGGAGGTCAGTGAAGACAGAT
4. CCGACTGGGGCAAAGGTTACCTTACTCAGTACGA

Result:
1: -0.564; 2: 0.625; 3: 6.18; 4: 3.41
